B1: RSPH3 (parent)
chain: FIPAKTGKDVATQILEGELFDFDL

- Variants of: B1
- experiment.description: protein stability index of a GFP-peptide fusion (GPS, HEK-293T) (PSI 1-6); higher = more stable;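 also: lentivirally expressed fusions sorted by FACS into six bins by GFP to DsRed ratio, PSI derived from sequencing read proportions per bin multiplied by bin number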
- condition.description: c terminus: a fixed tail appended
The threshold is inclusive: protein stability index of exactly 2 counts as MET; values below receive NOT MET.

| mutant.code | label.value |
| --- | --- |
| L24S | MET |
| D9L | MET |
| A11N | NOT MET |
| G17R | MET |
| T12G | NOT MET |
| D21C | MET |
| D21Q | NOT MET |
| Q13F | MET |
| F20H | NOT MET |
| I14M | MET |
| I14D | MET |
| A11R | MET |
| E18T | MET |
| Q13M | NOT MET |
| E16M | MET |
| D23T | MET |
| D21F | MET |
| I14A | MET |
| A11Q | NOT MET |

Numbers sourced from the supplement of paper PMC10567573.
